Target: T1, rat APJ receptor (rat, UniProt Q9JHG3 1-377)
T1 sequence (looked up): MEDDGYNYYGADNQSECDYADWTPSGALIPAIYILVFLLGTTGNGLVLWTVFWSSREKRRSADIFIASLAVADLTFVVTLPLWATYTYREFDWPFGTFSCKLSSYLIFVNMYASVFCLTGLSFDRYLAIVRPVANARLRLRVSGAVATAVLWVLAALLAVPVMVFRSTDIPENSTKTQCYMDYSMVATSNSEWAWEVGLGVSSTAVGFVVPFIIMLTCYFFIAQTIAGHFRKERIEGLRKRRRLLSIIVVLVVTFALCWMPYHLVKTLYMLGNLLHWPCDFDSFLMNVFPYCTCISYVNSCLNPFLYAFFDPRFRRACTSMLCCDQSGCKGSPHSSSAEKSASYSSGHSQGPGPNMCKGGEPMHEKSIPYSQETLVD
Assay: cell-based or functional assay
Starred links: 1 amine or outer side, 2 acyl side, 3 side chain; linkers in the order of their positions; H or OH if unused. Non-standard residues stand in square brackets, D forms with d. *: point of attachment. AC4Abu = α-carboxy-4-aminobutyric acid, O=C(C(CCN[*:1])C(=O)[*:3])[*:2]; Phe(4-Cl) = N[C@@H](Cc1ccc(Cl)cc1)C(=O)O; NMeR = CN[C@@H](CCCNC(=N)N)C(=O)O; Tridecanoyl = CCCCCCCCCCCCC(=O)*; Nle = CCCC[C@H](N)C(=O)O; AEEA = NCCOCCOCC(=O)O; βAla = NCCC(=O)O
value-type: EC50 Rat APJ Receptor (GTPγS assay) (nM)

binder	experimental-value
Tridecanoyl-[AC4Abu][AEEA][AEEA]QRP[NMeR]LS[βAla]KGP[Nle]P[Phe(4-Cl)]-OH (SMILES CCCCCCCCCCCCC(=O)NCCC(C(=O)O)C(=O)NCCOCCOCC(=O)NCCOCCOCC(=O)N[C@@H](CCC(N)=O)C(=O)N[C@@H](CCCNC(=N)N)C(=O)N1CCC[C@H]1C(=O)N(C)[C@@H](CCCNC(=N)N)C(=O)N[C@@H](CC(C)C)C(=O)N[C@@H](CO)C(=O)NCCC(=O)N[C@@H](CCCCN)C(=O)NCC(=O)N1CCC[C@H]1C(=O)N[C@@H](CCCC)C(=O)N1CCC[C@H]1C(=O)N[C@@H](Cc1ccc(Cl)cc1)C(=O)O) [Apelin polypeptide SEQ ID NO: 423]	1.18
